// data source = ChEMBL document CHEMBL1165922

This section presents compounds with their documented Activity values.
Tested on: Mus musculus
measurement notes: Toxicity in FVB mouse assessed as calcium level in blood at 240 pmol/day administered via osmotic pump for 6 to 7 days measured on day 4 by microchemistry (RVb = 2.11 mmol/L)
Type: organism-based
measurement conditions: in vivo, other
Enter your answer as a number in mmol/L; do not include the unit.

// worked examples, Activity included
record smiles | Activity, mmol/L
C[C@H](CCCCNC(=O)CS)[C@H]1CC[C@H]2/C(=C/C=C3C[C@@H](O)C[C@H](O)C3)CCC[C@]12C | 2.03
C[C@H](CCCCC(=O)Nc1ccccc1N)[C@H]1CC[C@H]2/C(=C/C=C3C[C@@H](O)C[C@H](O)C3)CCC[C@]12C | 1.97
CCCCS(=O)(=O)NCCCC[C@@H](C)[C@H]1CC[C@H]2/C(=C/C=C3C[C@@H](O)C[C@H](O)C3)CCC[C@]12C | 1.99

// sample "C[C@H](CCCCNS(=O)(=O)c1ccccc1)[C@H]1CC[C@H]2/C(=C/C=C3C[C@@H](O)C[C@H](O)C3)CCC[C@]12C" , its Activity was 2.05

###

Sequence of the target: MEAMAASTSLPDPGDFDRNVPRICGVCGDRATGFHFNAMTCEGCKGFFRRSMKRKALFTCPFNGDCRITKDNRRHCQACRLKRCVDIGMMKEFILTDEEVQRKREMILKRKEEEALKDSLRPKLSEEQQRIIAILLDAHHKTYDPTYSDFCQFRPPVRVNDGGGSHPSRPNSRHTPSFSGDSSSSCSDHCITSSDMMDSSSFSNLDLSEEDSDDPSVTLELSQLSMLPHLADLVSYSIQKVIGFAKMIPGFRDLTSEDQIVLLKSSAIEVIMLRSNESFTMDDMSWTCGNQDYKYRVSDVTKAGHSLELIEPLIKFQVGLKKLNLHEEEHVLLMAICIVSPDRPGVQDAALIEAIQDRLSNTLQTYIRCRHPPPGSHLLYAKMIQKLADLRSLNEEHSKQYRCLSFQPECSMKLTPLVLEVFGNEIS
This section presents compounds with their documented pIC50 values.
To interpret pIC50, take it as minus log10 of a concentration measured in moles per litre.

// worked examples, pIC50 included
record smiles | pIC50
C[C@H](CCCNS(C)(=O)=O)[C@H]1CC[C@H]2/C(=C/C=C3C[C@@H](O)C[C@H](O)C3)CCC[C@]12C | 6.67
C[C@H](CCCCC(=O)NO)[C@H]1CC[C@H]2/C(=C/C=C3C[C@@H](O)C[C@H](O)C3)CCC[C@]12C | 6.61
C[C@H](CCCC(=O)Nc1ccccc1N)[C@H]1CC[C@H]2/C(=C/C=C3C[C@@H](O)C[C@H](O)C3)CCC[C@]12C | 6.28
C[C@H](CCCCNS(=O)(=O)c1ccccc1)[C@H]1CC[C@H]2/C(=C/C=C3C[C@@H](O)C[C@H](O)C3)CCC[C@]12C | 7.82
CCCCS(=O)(=O)NCCCC[C@@H](C)[C@H]1CC[C@H]2/C(=C/C=C3C[C@@H](O)C[C@H](O)C3)CCC[C@]12C | 7.54

# evaluate next
// sample "C[C@H](CCCCCNS(N)(=O)=O)[C@H]1CC[C@H]2/C(=C/C=C3C[C@@H](O)C[C@H](O)C3)CCC[C@]12C" , its pIC50 was 6.71
